# System: Plasmodium falciparum
# measurementDescription: Antimicrobial activity against Plasmodium falciparum harboring NGFSDD genotype after 72 hrs by SYBR green I assay
metricName: IC50

In [3]: df
Out[3]:
                                   compound  obsvalue
0  OC(c1cc(C(F)(F)F)nc2c(C(F)(F)F)cccc12)C1CCCCN1 (stereo unspecified)     21 nM
